A compilation of published IC50 results with G protein-coupled receptor kinase 5 (Homo sapiens).

input: Value wanted: IC50 (G protein-coupled receptor kinase 5 (Homo sapiens)) of entry `Cc1ccc([C@@H](C)NC(=O)c2ccc3c(c2)/C(=C/Nc2ccc(CN4CCCCC4)cc2)C(=O)N3)cc1`
output: 100 to 1000 nM

input: Form field - read-out: IC50; system: G protein-coupled receptor kinase 5 (Homo sapiens); submitted item: `Cc1[nH]c(/C=C2\C(=O)Nc3ccc(C(=O)N[C@H](C)c4ccccc4)cc32)c(C)c1C(=O)N[C@H]1c2ccccc2C[C@H]1O`
output: 101 to 999 nM

input: Enter reported IC50 observed with G protein-coupled receptor kinase 5 (Homo sapiens) for Cc1[nH]c(/C=C2\C(=O)Nc3ccc(C(=O)N[C@H](C)c4ccccc4)cc32)c(C)c1C(=O)NCC(O)c1ccoc1 (some centres unmarked)
output: 1 to 100 nM

input: Reported IC50 for G protein-coupled receptor kinase 5 (Homo sapiens), given Cc1[nH]c(/C=C2\C(=O)Nc3ccc(C(=O)N[C@@H]4CCc5ccccc54)cc32)c(C)c1NC(=O)C(O)c1ccco1 (some centres unmarked) ?
output: 101 to 999 nM

input: Lab note: need IC50 for `Cc1[nH]c(/C=C2\C(=O)Nc3ccc(C(=O)N[C@H]4CCc5ccccc54)cc32)c(C)c1NC(=O)C(=O)c1ccco1` on G protein-coupled receptor kinase 5 (Homo sapiens), anyone have it?
output: 1000 to 10000 nM

input: Notebook entry, G protein-coupled receptor kinase 5 (Homo sapiens) assay: IC50 of `O=C(NCCc1ccncc1)c1cc([C@@H]2CCNC[C@H]2COc2ccc3c(c2)OCO3)ccc1F` = ?
output: > 100000 nM

input: Query IC50 on G protein-coupled receptor kinase 5 (Homo sapiens) for `O=C(NCc1ncc[nH]1)c1cc([C@@H]2CCNC[C@H]2COc2ccc3c(c2)OCO3)ccc1F`
output: 14800 nM

input: # get_value(readout= IC50, system= G protein-coupled receptor kinase 5 (Homo sapiens)) for `Cc1[nH]c(/C=C2\C(=O)Nc3ccc(C(=O)N[C@H](C)c4ccccc4)cc32)c(C)c1C(=O)NC[C@@H]1CCCO1`
output: 1 to 100 nM

input: Observed IC50 on G protein-coupled receptor kinase 5 (Homo sapiens) for `O=C(NCc1ccccc1)c1cc([C@@H]2CCNC[C@H]2COc2ccc3c(c2)OCO3)ccc1F` , please.
output: 84300 nM

input: # value lookup — system G protein-coupled receptor kinase 5 (Homo sapiens), readout IC50, item `Cc1[nH]c(/C=C2\C(=O)Nc3ccc(C(=O)N[C@H](C)c4ccccc4)cc32)c(C)c1C(=O)N[C@H]1C(=O)Cc2ccccc21`
output: 101 to 999 nM

input: Item: `Cc1[nH]c(/C=C2\C(=O)Nc3ccc(C(=O)N[C@H](C)c4ccccc4)cc32)c(C)c1C(=O)N[C@@H]1c2ccccc2CC[C@@H]1O` Test system: G protein-coupled receptor kinase 5 (Homo sapiens) Read-out: IC50 Value: ?
output: 101 to 999 nM

input: Fill in the recorded IC50 for this compound, with G protein-coupled receptor kinase 5 (Homo sapiens) as test system: `Cc1[nH]c(/C=C2\C(=O)Nc3ccc(C(=O)N[C@H](C)c4ccccc4)cc32)c(C)c1C(=O)Nc1nc2ccccc2[nH]1`
output: 101 to 999 nM

input: API: value(readout=IC50, system=G protein-coupled receptor kinase 5 (Homo sapiens)) for record `O=C(NCc1ccncc1)c1cc([C@@H]2CCNC[C@H]2COc2ccc3c(c2)OCO3)ccc1F`
output: > 100000 nM

input: API: value(readout=IC50, system=G protein-coupled receptor kinase 5 (Homo sapiens)) for record `Cc1[nH]c(/C=C2\C(=O)Nc3ccc(C(=O)N[C@@H]4CCc5ccccc54)cc32)c(C)c1C(=O)N1CCC[C@@H]1CN1CCCC1`
output: 2000 to 10000 nM
